Biological target: PI3Kδ (Homo sapiens, UniProt O00329)
Construct: The protein is full length and co-expressed with untagged PIK3R1; GST; purchased Invitrogen PV5274
Sequence (O00329 whole entry): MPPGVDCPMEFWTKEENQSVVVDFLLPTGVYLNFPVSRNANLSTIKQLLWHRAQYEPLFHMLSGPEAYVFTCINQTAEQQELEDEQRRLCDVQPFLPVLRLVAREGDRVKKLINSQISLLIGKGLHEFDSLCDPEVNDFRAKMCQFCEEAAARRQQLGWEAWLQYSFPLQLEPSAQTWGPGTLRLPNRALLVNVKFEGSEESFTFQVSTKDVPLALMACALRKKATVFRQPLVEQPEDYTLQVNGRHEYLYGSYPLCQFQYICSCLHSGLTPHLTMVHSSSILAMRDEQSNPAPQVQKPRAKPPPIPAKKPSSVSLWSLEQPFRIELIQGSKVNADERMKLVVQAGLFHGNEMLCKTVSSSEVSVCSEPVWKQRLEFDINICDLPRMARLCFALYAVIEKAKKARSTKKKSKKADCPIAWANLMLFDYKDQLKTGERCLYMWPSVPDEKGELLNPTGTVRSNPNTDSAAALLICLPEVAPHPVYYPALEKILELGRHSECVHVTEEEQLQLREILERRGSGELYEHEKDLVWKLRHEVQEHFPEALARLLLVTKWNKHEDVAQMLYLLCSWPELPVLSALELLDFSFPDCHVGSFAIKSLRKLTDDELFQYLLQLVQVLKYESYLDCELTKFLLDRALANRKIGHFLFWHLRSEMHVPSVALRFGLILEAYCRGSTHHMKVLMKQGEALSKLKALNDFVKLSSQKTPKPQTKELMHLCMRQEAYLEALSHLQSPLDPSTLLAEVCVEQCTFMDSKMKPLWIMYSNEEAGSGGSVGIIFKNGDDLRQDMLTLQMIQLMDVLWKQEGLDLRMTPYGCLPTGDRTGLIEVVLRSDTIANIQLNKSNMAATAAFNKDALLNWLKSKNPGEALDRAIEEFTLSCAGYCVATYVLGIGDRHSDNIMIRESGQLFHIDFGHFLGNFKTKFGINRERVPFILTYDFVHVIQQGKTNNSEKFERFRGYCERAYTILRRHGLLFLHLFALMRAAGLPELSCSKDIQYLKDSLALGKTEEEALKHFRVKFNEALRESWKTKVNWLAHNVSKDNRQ
Sequence (P27986 whole entry partner): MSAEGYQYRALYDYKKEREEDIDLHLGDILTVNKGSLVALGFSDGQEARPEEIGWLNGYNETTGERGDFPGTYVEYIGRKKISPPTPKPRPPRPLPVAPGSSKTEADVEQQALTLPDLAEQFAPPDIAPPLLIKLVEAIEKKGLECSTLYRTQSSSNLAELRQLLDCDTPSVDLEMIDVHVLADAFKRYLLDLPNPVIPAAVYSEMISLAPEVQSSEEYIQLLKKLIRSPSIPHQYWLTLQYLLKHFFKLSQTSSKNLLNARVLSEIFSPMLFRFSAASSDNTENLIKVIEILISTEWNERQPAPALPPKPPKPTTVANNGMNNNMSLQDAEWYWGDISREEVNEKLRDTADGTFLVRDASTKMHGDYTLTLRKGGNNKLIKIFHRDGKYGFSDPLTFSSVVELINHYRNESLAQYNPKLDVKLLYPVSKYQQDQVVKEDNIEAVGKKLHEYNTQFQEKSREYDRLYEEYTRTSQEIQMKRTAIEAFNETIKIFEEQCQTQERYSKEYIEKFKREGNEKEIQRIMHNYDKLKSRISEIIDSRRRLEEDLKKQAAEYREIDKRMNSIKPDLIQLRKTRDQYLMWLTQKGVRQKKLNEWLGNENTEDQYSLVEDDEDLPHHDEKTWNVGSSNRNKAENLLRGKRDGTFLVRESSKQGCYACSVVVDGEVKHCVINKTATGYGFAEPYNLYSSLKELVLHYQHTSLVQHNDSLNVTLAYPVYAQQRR
Assay: PI3Kδ inhibition, modified PIK3CD Adapta TR-FRET assay
Assay type: biochemical
Details: recombinant GST-tagged full length PIK3CD co-expressed with PIK3R1 (p85α); 2 μM ATP, 50 μM PIP2; read-out: PI3Kδ Inhibition (pIC50) (converted)
test-readout: IC50 (nM)

{"compound": "CNC(=O)Nc1ccc(-c2ncc3c(n2)N2CCOCC2C(=O)N3C2(c3ccc(Cl)cc3)CC2)cc1 (stereo not shown) [Example 99]", "target-of-assay": "PI3Kδ (Homo sapiens, UniProt O00329)", "observed": 6.31}

[a] CS(=O)(=O)c1ccc(CN2C(=O)C3COCCN3c3nc(-c4cccc(N)c4)ncc32)cc1 (stereo not shown) [Example 103]
[b] CNC(=O)Nc1ccc(-c2ncc3c(n2)N2CCOC[C@H]2CN3CC(=O)NCC2CCOCC2)cc1 [Example 222]
Between these two entries, a and b , state which has the higher IC50. Write down the label attached to your selection.
a
(a: 126 nM, b: 31.6 nM)

[I] CS(=O)(=O)c1ccc(CN2C(=O)C3COCCN3c3nc(-c4ccc(N)nc4)ncc32)cc1 (stereo not shown) [Example 106]
[II] O=C(OCc1ccccc1)N1CC2COCCN2c2nc(-c3cccc4[nH]ccc34)ncc21 (stereo not shown) [Example 53]
Between these two entries, I and II , state which has the higher IC50. Write down the label attached to your selection.
II
(II: 251 nM, I: 7.94 nM)

[I] Cc1ccc(CO)c(CN2C[C@@H]3COCCN3c3nc(-c4cccc5[nH]ccc45)ncc32)c1 [Example 166]
[II] CN(C)C(=O)CN1CC2COCCN2c2nc(-c3cccc4[nH]ccc34)ncc21 (stereo not shown) [Example 43]
[III] CNC(=O)Nc1ccc(-c2ncc3c(n2)N2CCOCC2C(=O)N3Cc2cccc(-n3cccc3)c2)cc1 (stereo not shown) [Example 90]
Task field, ranking: reported IC50, descending order. # list labels per requested ordering
II, I, III

[A] O=C(CN1C[C@@H]2COCCN2c2nc(-c3cccc4[nH]ccc34)ncc21)NCc1cc[nH]n1 [Example 72]
[B] CC(C)(O)CNC(=O)CN1C[C@@H]2COCCN2c2nc(-c3cccc4[nH]ccc34)ncc21 [Example 71]
[C] CNC(=O)Nc1ccc(-c2ncc3c(n2)N2CCOCC2CN3Cc2ccccc2)cc1 (stereo not shown) [Example 61]
Task field, ranking: reported IC50, descending order. # list labels per requested ordering
C, B, A
(C: 631 nM, B: 398 nM, A: 126 nM)

[P] CNC(=O)c1cccc(-c2ncc3c(n2)N2CCOCC2C(=O)N3Cc2ccc(S(C)(=O)=O)cc2)c1 (stereo not shown) [Example 122]
[Q] CNC(=O)Nc1ccc(-c2ncc3c(n2)N2CCOCC2C(=O)N3CCc2c(C)n[nH]c2C)cc1 (stereo not shown) [Example 94]
Between these two entries, P and Q , state which has the higher IC50. Write down the label attached to your selection.
P

[I] c1ccc(-c2nc(CN3CC4COCCN4c4nc(-c5cccc6[nH]ccc56)ncc43)co2)cc1 (stereo not shown) [Example 37]
[II] CS(=O)(=O)c1cccc(N2C[C@@H]3COCCN3c3nc(-c4cccc5[nH]ccc45)ncc32)c1 [Example 191]
Between these two entries, I and II , state which has the higher IC50. Write down the label attached to your selection.
I

###

Biological target: PI3Kδ (Homo sapiens)
Construct: The protein is full length and co-expressed with untagged PIK3R1; GST; purchased Invitrogen PV5274
Experiment: PI3Kδ inhibition, modified PIK3CD Adapta TR-FRET assay
Format: biochemical
Conditions: recombinant GST-tagged full length PIK3CD co-expressed with PIK3R1 (p85α); 2 μM ATP, 50 μM PIP2; read-out: PI3Kδ Inhibition (pIC50) (converted)
Text: The activity of compounds as PI3Kδ inhibitors may be determined by a variety of methods, including in vitro and in vivo methods. The following in vitro assay measures a test compound's ability to inhibit PI3Kδ-mediated phosphorylation of PIP2 and ATP. Recombinant GST-tagged PIK3CD is purchased from Invitrogen (Part Number: PV5274). The protein is full length and co-expressed with untagged PIK3R1, phosphoinositide-3-kinase regulatory subunit 1 (p85α). […]
test-readout: IC50 (nM)

Example results:
{"compound": "c1cc(-c2ncc3c(n2)N2CCOCC2CN3)c2cc[nH]c2c1 (centres unmarked)", "target-of-assay": "PI3Kδ (Homo sapiens)", "unit-abbrev": "nM", "observed": 50.1}
{"compound": "O=C(CN1C[C@@H]2COCCN2c2nc(-c3ccc(CO)s3)ncc21)NCC1CCOCC1", "target-of-assay": "PI3Kδ (Homo sapiens)", "unit-abbrev": "nM", "observed": 501}
{"compound": "CC(C)(O)c1cccc(-c2ncc3c(n2)N2CCOC[C@H]2CN3CC(=O)NCC2CCOCC2)c1", "target-of-assay": "PI3Kδ (Homo sapiens)", "unit-abbrev": "nM", "observed": 1000}
{"compound": "c1ccc(-n2cc(CN3CC4COCCN4c4nc(-c5cccc6[nH]ccc56)ncc43)nn2)cc1 (centres unmarked)", "target-of-assay": "PI3Kδ (Homo sapiens)", "unit-abbrev": "nM", "observed": 15.8}
{"compound": "O=C(Cc1ccccc1)N1CC2COCCN2c2nc(-c3cccc4[nH]ccc34)ncc21 (centres unmarked)", "target-of-assay": "PI3Kδ (Homo sapiens)", "unit-abbrev": "nM", "observed": 251}

[I] CC(C)Cc1nnc(C(C)N2C[C@@H]3COCCN3c3nc(-c4cccc5[nH]ccc45)ncc32)o1 (some centres unmarked)
[II] O=C(Cc1c(F)cccc1F)N1CC2COCCN2c2nc(-c3cccc4[nH]ccc34)ncc21 (centres unmarked)
// task: argmin of IC50 over [ I , II ] Write down the label attached to your selection.
I

###

Biological target: PI3Kδ (Homo sapiens, UniProt O00329)
Construct: The protein is full length and co-expressed with untagged PIK3R1; GST; purchased Invitrogen PV5274
Experiment: PI3Kδ inhibition, modified PIK3CD Adapta TR-FRET assay
Assay type: biochemical
Details: recombinant GST-tagged full length PIK3CD co-expressed with PIK3R1 (p85α); 2 μM ATP, 50 μM PIP2; read-out: PI3Kδ Inhibition (pIC50) (converted)
test-readout: IC50 (nM)

{"molecule": "CNC(=O)Nc1ccc(-c2ncc3c(n2)N2CCOCC2C(=O)N3[C@@H](C)c2ccc(Cl)cc2)cc1 (single isomer, unassigned) [Example 85]", "target-of-assay": "PI3Kδ (Homo sapiens, UniProt O00329)", "test-readout": "IC50", "observed": 12.6}
{"molecule": "O=C(CN1C[C@@H]2COCCN2c2nc(-c3cccc(CO)c3)ncc21)NCC1CCOCC1 [Example 82]", "target-of-assay": "PI3Kδ (Homo sapiens, UniProt O00329)", "test-readout": "IC50", "observed": 12.6}

[a] CS(=O)(=O)c1ccc(CN2CC3COCCN3c3nc(-c4cccc5[nH]ccc45)ncc32)c(Cl)c1 (stereo not shown) [Example 5]
[b] O=C1C2COCCN2c2nc(-c3cccc4[nH]ccc34)ncc2N1Cc1ccccc1 (stereo not shown) [Example 145]
// task: argmin of IC50 over [ a , b ] Write down the label attached to your selection.
a

###

Target: PI3Kδ (Homo sapiens, UniProt O00329)
Construct: The protein is full length and co-expressed with untagged PIK3R1; GST; purchased Invitrogen PV5274
Assay: PI3Kδ inhibition, modified PIK3CD Adapta TR-FRET assay
Assay type: biochemical
Settings: recombinant GST-tagged full length PIK3CD co-expressed with PIK3R1 (p85α); 2 μM ATP, 50 μM PIP2; read-out: PI3Kδ Inhibition (pIC50) (converted)
test-readout: IC50 (nM)

[I] CS(=O)(=O)c1ccc(CN2C(=O)C3COCCN3c3nc(-c4cncc5[nH]ccc45)ncc32)cc1 (stereo not shown)
[II] CCOC(=O)c1cncc(N2C[C@@H]3COCCN3c3nc(-c4cccc5[nH]ccc45)ncc32)c1
[III] NC(=O)c1ccccc1CN1CC2COCCN2c2nc(-c3cccc4[nH]ccc34)ncc21 (stereo not shown)
[IV] CS(=O)(=O)c1ccc(CN2CC3COCCN3c3nc(-c4cnc(N)nc4)ncc32)cc1 (stereo not shown)
Sort entries by IC50 from minimum to maximum value. # list labels per requested ordering
I, IV, II, III
(I: 2.51 nM, IV: 3.98 nM, II: 15.8 nM, III: 63.1 nM)

###

Biological target: PI3Kδ (Homo sapiens, UniProt O00329)
Construct: The protein is full length and co-expressed with untagged PIK3R1; GST; purchased Invitrogen PV5274
Experiment: PI3Kδ inhibition, modified PIK3CD Adapta TR-FRET assay
Type: biochemical
Conditions: recombinant GST-tagged full length PIK3CD co-expressed with PIK3R1 (p85α); 2 μM ATP, 50 μM PIP2; read-out: PI3Kδ Inhibition (pIC50) (converted)
test-readout: IC50 (nM)

[A] O=C(Cc1ccsc1)N1CC2COCCN2c2nc(-c3cccc4[nH]ccc34)ncc21 (stereo not shown)
[B] O=C(O)CCCN1C[C@@H]2COCCN2c2nc(-c3cccc4[nH]ccc34)ncc21
[C] CCc1nnc(CN2C[C@@H]3COCCN3c3nc(-c4cncc5[nH]ccc45)ncc32)o1
Sort entries by IC50 from minimum to maximum value. # list labels per requested ordering
B, A, C

[A] c1csc(-c2nnc(CN3CC4COCCN4c4nc(-c5cccc6[nH]ccc56)ncc43)o2)c1 (stereo not shown)
[B] C[C@@H](c1ccccc1)N1C(=O)C2COCCN2c2nc(-c3cc[nH]n3)ncc21 (mixture of isomers)
// task: argmin of IC50 over [ A , B ] Write down the label attached to your selection.
A

[P] CC(C)(O)c1ccc(CN2CC3COCCN3c3nc(-c4cccc5[nH]ccc45)ncc32)cc1 (stereo not shown)
[Q] COc1cccc2c(-c3ncc4c(n3)N3CCOCC3C(=O)N4Cc3ccc(S(C)(=O)=O)cc3)c[nH]c12 (stereo not shown)
[R] COc1cccc(CC(=O)N2CC3COCCN3c3nc(-c4cccc5[nH]ccc45)ncc32)c1 (stereo not shown)
[S] CNC(=O)Nc1ccc(-c2ncc3c(n2)N2CCOCC2CN3Cc2ccc(C)cc2)cc1 (stereo not shown)
Task field, ranking: reported IC50, descending order. # list labels per requested ordering
Q, S, R, P
(Q: 3160 nM, S: 794 nM, R: 316 nM, P: 15.8 nM)
